- target_under_test: Nuclear receptor ROR-gamma (Mus musculus, UniProt P51450)
- Sequence (P51450 whole entry): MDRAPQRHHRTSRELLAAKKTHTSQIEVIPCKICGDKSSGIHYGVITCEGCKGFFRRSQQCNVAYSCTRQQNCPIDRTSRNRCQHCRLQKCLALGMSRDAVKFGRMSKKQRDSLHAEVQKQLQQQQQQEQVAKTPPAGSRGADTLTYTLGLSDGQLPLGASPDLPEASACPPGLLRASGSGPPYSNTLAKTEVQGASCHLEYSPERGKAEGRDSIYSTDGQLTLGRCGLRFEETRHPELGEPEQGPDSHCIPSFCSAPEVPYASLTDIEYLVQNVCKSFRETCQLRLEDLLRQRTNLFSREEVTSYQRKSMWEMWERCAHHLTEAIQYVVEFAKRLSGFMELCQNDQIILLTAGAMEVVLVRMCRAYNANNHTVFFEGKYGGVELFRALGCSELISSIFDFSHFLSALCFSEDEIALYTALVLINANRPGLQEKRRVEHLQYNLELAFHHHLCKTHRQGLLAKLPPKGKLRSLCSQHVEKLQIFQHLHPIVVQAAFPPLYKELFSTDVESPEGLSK
- test_name: Activity at RoRc in mouse CD4+ T cells assessed as inhibition of IL-17 production
EC50 values, listed per item

molecular_string: [2H]C([2H])([2H])N(C(=O)c1c(F)cccc1Cl)c1ccc(-c2cc(C(=O)NCC(C)(C)O)ccc2Cl)cc1N(C([2H])([2H])C([2H])([2H])[2H])C([2H])([2H])C([2H])([2H])[2H]
EC50: < 100 nM

molecular_string: CCS(=O)(=O)c1ccc(CC(=O)Nc2nc(-c3cccc(Cl)c3)c(C(=O)c3ccccc3Cl)s2)cc1
EC50: 158 nM

molecular_string: CCS(=O)(=O)c1ccc(CC(=O)Nc2ccc3c(ccn3CCc3ccc(Cl)cc3Cl)c2)cc1
EC50: 9 nM

molecular_string: CN(C(=O)c1c(F)cccc1Cl)c1ccc(-c2cc(C(N)=O)ccc2Cl)cc1O[C@@H]1C[C@@H]2C[C@@H]2C1
EC50: < 100 nM

* * *

EC50 values, listed per item
- target_under_test: Nuclear receptor ROR-gamma (Homo sapiens)
- Sequence (P51449 whole entry): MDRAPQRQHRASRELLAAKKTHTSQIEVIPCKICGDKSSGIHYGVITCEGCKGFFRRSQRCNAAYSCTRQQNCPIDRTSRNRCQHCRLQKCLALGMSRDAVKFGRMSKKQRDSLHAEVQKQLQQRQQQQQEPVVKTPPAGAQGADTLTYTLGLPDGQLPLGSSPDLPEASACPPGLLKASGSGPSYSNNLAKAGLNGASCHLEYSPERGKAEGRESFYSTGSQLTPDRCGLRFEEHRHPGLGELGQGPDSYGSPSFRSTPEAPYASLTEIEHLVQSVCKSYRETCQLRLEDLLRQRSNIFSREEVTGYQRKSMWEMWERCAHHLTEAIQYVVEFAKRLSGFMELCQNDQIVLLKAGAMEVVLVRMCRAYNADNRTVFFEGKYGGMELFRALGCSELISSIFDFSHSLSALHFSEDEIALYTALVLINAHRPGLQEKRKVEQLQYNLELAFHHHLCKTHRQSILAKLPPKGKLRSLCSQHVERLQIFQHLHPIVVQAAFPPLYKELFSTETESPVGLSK
- test_name: Inhibition of RORc (unknown origin) assessed as inhibition of fluorescein-D22 recruitment by TR-FRET assay
- Assay type: functional

molecular_string: CCS(=O)(=O)c1ccc(CC(=O)Nc2ccc(-n3ccc(C)n3)c(Oc3cccc(OC(F)(F)F)c3)c2)cc1
EC50: < 50 nM

molecular_string: CCS(=O)(=O)c1ccc(CC(=O)Nc2ccc(-c3ccccc3)c(Oc3ccccc3)c2)cc1
EC50: < 50 nM
